PROTOCOL_SUMMARY: qHTS Assay for inhibitors of the human cytomegalovirus (HCMV)
RECORDED_CONDITIONS: HFF cells, HCMV-luciferase reporter, 72 h; at 57.5 µM
Screen size: about 410,000 compounds; about 18,000 (4.4%) were called active. Roughly 7% stayed inconclusive and do not appear here. Rule as the data show it: active = activity change below about -60%; inconclusive = no clear call, values can overlap the other calls; inactive = above about -39%. The entries come from a sample that favours actives as a whole.
Classes used: active, inactive

- MOLECULE: "CCOC(=O)c1nnn(-c2nonc2-n2cccc2)c1CN1CCOCC1"
  CATEGORY: "inactive"
- MOLECULE: "Cc1ccc(S(=O)(=O)n2nc(-c3ccc(Cl)cc3)nc2NCc2ccccc2)cc1"
  CATEGORY: "inactive"
- MOLECULE: "Clc1ccc(-c2cc(COc3ccccc3)no2)cc1Cl"
  CATEGORY: "inactive"
- MOLECULE: "Cn1c(=O)c2c(ncn2CC(=O)Nc2cccc(C(F)(F)F)c2)n(C)c1=O"
  CATEGORY: "inactive"
- MOLECULE: "O=C(Nc1ccccc1Cl)/C(Cl)=C(\\Cl)S(=O)c1ccccc1 (configuration not stated)"
  CATEGORY: "active"
- MOLECULE: "Cc1csc2nc(COc3ccc(NC(=O)COc4ccccc4)cc3)cc(=O)n12"
  CATEGORY: "inactive"
- MOLECULE: "CSc1nc2ccc(S(=O)(=O)N3CCc4ccccc43)cc2s1"
  CATEGORY: "active"
- MOLECULE: "CC(C)C(C(=O)NC(C)(C)CC(C)(C)C)N1C(=O)C(=O)c2ccccc21 (configuration not stated)"
  CATEGORY: "inactive"
- MOLECULE: "CCn1c(=O)c(=O)n(CC)c2cc(S(=O)(=O)N3CCc4ccccc43)ccc21"
  CATEGORY: "inactive"
- MOLECULE: "CCCN(CCC)c1c([N+](=O)[O-])c(=O)oc2ccccc12"
  CATEGORY: "inactive"
- MOLECULE: "COc1ccc(S(=O)(=O)n2nc(C)c(S(=O)(=O)N3CCCCCC3)c2C)cc1"
  CATEGORY: "inactive"
- MOLECULE: "Cc1ccc(N(CC(=O)NCC(C)c2ccccc2)S(=O)(=O)N(C)C)cc1 (configuration not stated)"
  CATEGORY: "inactive"
- MOLECULE: "COc1cc(OC)c(OC)cc1/C=C/c1nc2ccccc2c(=O)n1-c1ccc(Br)c(C)c1"
  CATEGORY: "inactive"
- MOLECULE: "CCOC(=O)c1c(CN2CCOCC2)n(-c2ccccc2)c2ccc(O)cc12"
  CATEGORY: "active"
- MOLECULE: "COCCn1c(CCC(=O)Nc2cc(C)ccc2C)nc2cccnc21"
  CATEGORY: "inactive"
- MOLECULE: "CCC(=O)Nc1ccc2nc(SCC(=O)N3CCc4ccccc43)sc2c1"
  CATEGORY: "inactive"
- MOLECULE: "CCOC(=O)c1c(C)[nH]c(CCC(=O)Nc2ccc(OC)c(OC)c2)c1C"
  CATEGORY: "inactive"
- MOLECULE: "CCc1ccc(Nc2n[n+](-c3ccccc3)c(-c3cccc(Cl)c3Cl)s2)cc1"
  CATEGORY: "active"
- MOLECULE: "COCC(C)N=CC1=C(O)CC(C)(C)CC1=O (configuration not stated)"
  CATEGORY: "inactive"
- MOLECULE: "S=C(NCC1CCCO1)N1CCN(c2ccc(Cl)c(Cl)c2)CC1 (configuration not stated)"
  CATEGORY: "active"
- MOLECULE: "Cn1c(Cc2csc(N)n2)nnc1SC/C=C/c1ccccc1"
  CATEGORY: "inactive"
- MOLECULE: "Fc1ccc(CN2CCc3nc(Nc4ccccc4)ncc3C2)cc1F"
  CATEGORY: "inactive"
